Target: T1, human IL-6 (human, UniProt P05231 30-212)
T1 construct: also called interleukin-6
T1 sequence (P05231 30-212 limits assumed): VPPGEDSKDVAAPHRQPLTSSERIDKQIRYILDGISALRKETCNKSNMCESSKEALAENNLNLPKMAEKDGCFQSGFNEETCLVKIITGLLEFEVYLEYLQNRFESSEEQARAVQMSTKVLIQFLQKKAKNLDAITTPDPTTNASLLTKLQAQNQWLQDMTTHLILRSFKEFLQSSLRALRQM
Assay: SPR (Biacore T200), antibody from cell supernatant captured on Protein A, IL-6 flowed over, 37 C
experimentalEndpoint: pKd
For clarity, pKd is expressed as the negative log10 of concentration in mol/L.

binder: anti-IL-6 antibody, heavy chain I51A, G66D / light chain WT (antibody, human IgG1, V domains shown, Derived as m2; Engineered human IgG1) VH: EVQLVESGGGLVQPGGSLRLSCAASGFTFSPFAMSWVRQAPGKGLEWVAKASPGGSWTYYSDTVTDRFTFSLDTSKSTAYLQMNSLRAEDTAVYYCARQLWGYYALDIWGQGTLVTVSS VL: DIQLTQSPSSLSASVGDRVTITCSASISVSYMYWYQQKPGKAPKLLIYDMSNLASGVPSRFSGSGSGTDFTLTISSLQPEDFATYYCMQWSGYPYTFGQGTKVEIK
pKd: 9.49
//
binder: anti-IL-6 antibody, heavy chain T63H, G66D / light chain WT (antibody, human IgG1, V domains shown, Derived as m2; Engineered human IgG1) VH: EVQLVESGGGLVQPGGSLRLSCAASGFTFSPFAMSWVRQAPGKGLEWVAKISPGGSWTYYSDHVTDRFTFSLDTSKSTAYLQMNSLRAEDTAVYYCARQLWGYYALDIWGQGTLVTVSS VL: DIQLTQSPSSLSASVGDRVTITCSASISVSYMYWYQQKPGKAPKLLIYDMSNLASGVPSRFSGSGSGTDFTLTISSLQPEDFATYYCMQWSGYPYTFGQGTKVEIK
pKd: 9.67
//
binder: anti-IL-6 antibody, heavy chain I51R, G66D / light chain WT (antibody, human IgG1, V domains shown, Derived as m2; Engineered human IgG1) VH: EVQLVESGGGLVQPGGSLRLSCAASGFTFSPFAMSWVRQAPGKGLEWVAKRSPGGSWTYYSDTVTDRFTFSLDTSKSTAYLQMNSLRAEDTAVYYCARQLWGYYALDIWGQGTLVTVSS VL: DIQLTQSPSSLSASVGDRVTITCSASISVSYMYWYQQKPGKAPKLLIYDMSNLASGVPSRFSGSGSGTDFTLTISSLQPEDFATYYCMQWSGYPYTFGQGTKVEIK
pKd: 9.77
//
binder: anti-IL-6 antibody, heavy chain I51G, G66D / light chain WT (antibody, human IgG1, V domains shown, Derived as m2; Engineered human IgG1) VH: EVQLVESGGGLVQPGGSLRLSCAASGFTFSPFAMSWVRQAPGKGLEWVAKGSPGGSWTYYSDTVTDRFTFSLDTSKSTAYLQMNSLRAEDTAVYYCARQLWGYYALDIWGQGTLVTVSS VL: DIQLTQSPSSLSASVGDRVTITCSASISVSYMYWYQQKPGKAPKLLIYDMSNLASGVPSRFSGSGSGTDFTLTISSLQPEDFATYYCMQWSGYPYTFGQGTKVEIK
pKd: 9.37

Could you now look at the following binder, please?
# pKd of anti-IL-6 antibody, heavy chain I51E, G66D / light chain WT (antibody, human IgG1, V domains shown, Derived as m2; Engineered human IgG1) VH: EVQLVESGGGLVQPGGSLRLSCAASGFTFSPFAMSWVRQAPGKGLEWVAKESPGGSWTYYSDTVTDRFTFSLDTSKSTAYLQMNSLRAEDTAVYYCARQLWGYYALDIWGQGTLVTVSS VL: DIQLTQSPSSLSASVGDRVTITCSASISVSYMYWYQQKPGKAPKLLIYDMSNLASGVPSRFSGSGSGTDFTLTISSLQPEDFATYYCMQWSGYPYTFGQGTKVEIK = 9.00

Value source: patent US20240368267A1
